Target: Solute carrier family 2, facilitated glucose transporter member 1 (Homo sapiens)
Test: ST_JUDE_LEISH: Cytotoxicity at 2uM final concentration against transgenic Leishmania Mexicana promastigotes LmGLUT1 that are glucose transport deficient and complemented with the human glucose transporter GLUT1. Activity is measured by DNA content using SYBR green in vitro
Assay type: functional

COMPOUND	UNIT OF MEASURE	inhibition
Clc1cccc(C=NN=c2cc[nH]c3ccccc23)c1	%	1.39
O=C(c1cc(-c2ccccc2O)on1)N1CCN(C(c2ccccc2)c2ccccc2)CC1	%	-0.36
c1ccc(Oc2ccc(Nc3ccnc(Nc4ccc(OCCN5CCCCC5)cc4)n3)cc2)cc1	%	8.95
COc1ccc(C=NN=c2cc(C)[nH]c3ccccc23)c(OC)c1	%	54.4
N=C(N)Nc1ccc(CCc2ccc(NC(=N)N)cc2)cc1	%	4.14
CCN(CC)CCNC(=O)c1ccc(N/C=C2\C(=O)Nc3ccc(S(=O)(=O)Cc4c(Cl)cccc4Cl)cc32)cc1	%	-0.98
N#Cc1cccc(NC(=O)NC2CCN(CCCCCNC(=O)/C=C/c3ccc(Cl)c(Cl)c3)CC2)c1	%	4.68
CC(C)CNC(=O)CN1C(=O)C(c2ccccc2)(c2ccccc2)N=C1N	%	4.76
Nc1nccc(-c2ccc3c(/C=C/c4ccccc4)cnc(N)c3c2)n1	%	18.2
Cc1nn(-c2ccccc2)c2c1C(c1ccc(C(C)C)cc1)N1C(=N2)N(Cc2ccccc2)c2ccccc21 (centres undefined)	%	4.28
O=C(NCc1cccc2ccccc12)[C@@H]1CCCN1C(=O)c1ccc(O)c(-c2ccc(Cl)c(Cl)c2)c1	%	3.99
Cc1ccccc1C1CCN(C2CCC(NC(=O)/C=C/c3ccc4c(c3)OC(F)(F)O4)CC2)CC1 (centres undefined)	%	0.14
CCCCCN1CCCC1CNS(=O)(=O)c1cccc(C(=O)Nc2cccc(C(F)(F)F)c2)c1 (centres undefined)	%	6.45
CCOC(=O)NC1=NC(=N)N(OCCCOc2cc(Cl)c(Cl)cc2Cl)C(C)(C)N1	%	-0.21
COc1cccc(NC(=O)Cn2c(C)c(C(=O)C(F)(F)F)c3ccccc32)c1	%	2.88
N#Cc1ccc(-c2ccc(C(=O)NCCCCN3CC=C(c4ccc5c(c4OCC4CC4)CCCC5)CC3)cc2)cc1	%	0.36
CCC(C)CN1CCN(c2cc(NC(=O)c3cccs3)ccn2)C(C)C1 (centres undefined)	%	-1.02
COc1ccc2nccc([C@@H](O)CN3CCC(NCc4cnc5c(c4)NC(=O)CS5)C(F)C3)c2c1 (some centres undefined)	%	-0.32
CN(c1ccc(F)cc1)S(=O)(=O)c1ccc(Cl)c(C(=O)Nc2cccc(C#N)c2)c1	%	4.24
